Reference for the values: the supplement of paper PMC7877785

# maps each entry to its self-splicing fitness (ln)
assay: self-splicing fitness, log relative to wild type (ln ratio); higher = more splicing; Tetrahymena group I intron in knt gene, E. coli kanamycin selection, DiMSum; sequences stand for … in CUCUCU…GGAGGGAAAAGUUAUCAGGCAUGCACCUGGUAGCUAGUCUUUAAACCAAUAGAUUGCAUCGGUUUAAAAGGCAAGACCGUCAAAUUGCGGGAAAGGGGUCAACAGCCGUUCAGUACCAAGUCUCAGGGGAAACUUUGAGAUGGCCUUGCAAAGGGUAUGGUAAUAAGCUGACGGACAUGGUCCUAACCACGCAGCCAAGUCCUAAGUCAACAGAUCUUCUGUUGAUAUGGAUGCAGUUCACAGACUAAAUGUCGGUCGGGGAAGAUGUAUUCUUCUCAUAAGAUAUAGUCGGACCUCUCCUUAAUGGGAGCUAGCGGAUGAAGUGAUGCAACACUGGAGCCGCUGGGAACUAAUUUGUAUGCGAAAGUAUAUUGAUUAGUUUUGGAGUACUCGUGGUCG; details: 37 °C;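 also: selection with 25 µg/mL kanamycin versus none on LB agar overnight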
REPORTED_PROPERTY: self-splicing fitness (ln)

GUACAGCAAUAUUACGACUA = -0.637
AGGGAGCAAUAUUACGUGUU = -1.73
UAUCAGCAAUAUUACGUCUC = -1.13
GCCAAGCAAUAUUACGCGGC = -3.03
GUAAAGCAAUAUUACGGGAC = -1.18
AUUCAGCAAUAUUACGCUGG = -2.98
AGAAAGCAAUAUUACGACCU = 0.265
AUGAAGCAAUAUUACGAGCU = -0.173

----------
# maps each entry to its self-splicing fitness (ln)
assay: self-splicing fitness, log relative to wild type (ln ratio); higher = more splicing; Tetrahymena group I intron in knt gene, E. coli kanamycin selection, DiMSum; sequences stand for … in CUCUCU…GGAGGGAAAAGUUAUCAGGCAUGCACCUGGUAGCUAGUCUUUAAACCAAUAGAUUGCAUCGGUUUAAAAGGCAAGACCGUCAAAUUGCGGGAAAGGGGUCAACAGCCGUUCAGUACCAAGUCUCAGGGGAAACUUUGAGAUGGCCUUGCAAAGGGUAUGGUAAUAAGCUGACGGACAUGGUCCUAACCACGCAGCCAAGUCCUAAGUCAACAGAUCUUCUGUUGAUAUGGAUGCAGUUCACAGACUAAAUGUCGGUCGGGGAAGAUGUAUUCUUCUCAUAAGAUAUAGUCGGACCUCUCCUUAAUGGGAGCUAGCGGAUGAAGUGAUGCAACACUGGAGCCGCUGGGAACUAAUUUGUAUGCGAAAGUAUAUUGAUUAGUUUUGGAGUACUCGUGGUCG; conditions: 37 °C
REPORTED_PROPERTY: self-splicing fitness (ln)

CGAAAGCAAUAUUACGCCCU = 0.0487
AGUCAGCAAUAUUACGGUGU = -0.39
ACCCAGCAAUAUUACGGUCA = -0.429
UAAAAGCAAUAUUACGUGGU = -2.28
CAUGAGCAAUAUUACGCAUA = -1.78
ACCGAGCAAUAUUACGAUUC = -3.31
ACCAAGCAAUAUUACGUUCG = -0.644
ACCUAGCAAUAUUACGUGGU = -2.95
UUACAGCAAUAUUACGCUCG = 0.283
UUCAAGCAAUAUUACGGAAU = -2.57
ACUAAGCAAUAUUACGGUCA = -1.35
AAAGAGCAAUAUUACGAUGG = -1.89
CAGUAGCAAUAUUACGAGAA = -3.36
GGUUAGCAAUAUUACGGUUA = -0.486
UGACAGCAAUAUUACGUUCU = -0.321
CAGGAGCAAUAUUACGUGUA = -2.83

----------
test: self-splicing fitness, log relative to wild type (ln ratio); higher = more splicing; Tetrahymena group I intron in knt gene, E. coli kanamycin selection, DiMSum; sequences stand for … in CUCUCU…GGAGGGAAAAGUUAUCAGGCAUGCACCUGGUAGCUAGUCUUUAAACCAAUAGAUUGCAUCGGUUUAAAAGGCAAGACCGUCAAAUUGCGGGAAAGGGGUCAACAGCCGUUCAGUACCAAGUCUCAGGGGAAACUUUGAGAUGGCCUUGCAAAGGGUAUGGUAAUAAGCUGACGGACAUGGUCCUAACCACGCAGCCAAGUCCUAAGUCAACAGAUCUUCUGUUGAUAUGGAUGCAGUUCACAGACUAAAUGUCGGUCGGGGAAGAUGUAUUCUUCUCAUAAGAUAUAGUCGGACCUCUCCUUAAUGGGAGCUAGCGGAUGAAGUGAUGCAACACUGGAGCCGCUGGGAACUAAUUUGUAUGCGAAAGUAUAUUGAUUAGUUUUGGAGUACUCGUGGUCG; details: 30 °C
Entries are grouped by self-splicing fitness (ln) into these classes: lo (below -3), med (-3 to below -2), hi (-2 or more)

UGUGAGCAAUAUUACGCUGC = hi
CUAGAGCAAUAUUACGAGAG = hi
GUGAAGCAAUAUUACGGCGU = hi
CAGCAGCAAUAUUACGUGUC = lo
CGUUAGCAAUAUUACGAGCA = hi
UUCCAGCAAUAUUACGCUGC = lo
GUCAAGCAAUAUUACGUCAG = lo
ACAUAGCAAUAUUACGUCCU = hi
UUCGAGCAAUAUUACGUGCG = lo
GAAAAGCAAUAUUACGACGA = hi
ACACAGCAAUAUUACGGGUA = med
CCACAGCAAUAUUACGCCUA = med
CAAAAGCAAUAUUACGAGGU = lo
AUCAAGCAAUAUUACGGAAU = hi
UGCUAGCAAUAUUACGUAAC = lo
GCAAAGCAAUAUUACGUGCA = hi
GAAUAGCAAUAUUACGGUGA = hi
CGCCAGCAAUAUUACGUUAC = hi
CGGAAGCAAUAUUACGCGCG = lo
UAAGAGCAAUAUUACGUAUG = lo
UCGUAGCAAUAUUACGGGUG = hi
AUGGAGCAAUAUUACGUGUU = lo
AAGUAGCAAUAUUACGAAAC = lo
AGAUAGCAAUAUUACGGGCG = hi
GUUCAGCAAUAUUACGAUUA = hi
AUGUAGCAAUAUUACGGAAU = hi
CAUAAGCAAUAUUACGGAGC = lo
CAUUAGCAAUAUUACGGCGG = hi
UAGAAGCAAUAUUACGUAAU = lo
CCGGAGCAAUAUUACGAUGG = lo
AUAGAGCAAUAUUACGGUGA = hi
UAGGAGCAAUAUUACGGUAA = lo
CGUAAGCAAUAUUACGCGAU = lo
UACGAGCAAUAUUACGGUCU = lo
UAGAAGCAAUAUUACGUUAC = lo
GUCCAGCAAUAUUACGAGGC = med
GGUUAGCAAUAUUACGCCGG = med
GCAAAGCAAUAUUACGGGAG = med
CCCUAGCAAUAUUACGAUAA = lo
UUCGAGCAAUAUUACGUGUG = med
UUCGAGCAAUAUUACGUGCA = med
UUCCAGCAAUAUUACGGGUG = hi
CACGAGCAAUAUUACGGACG = hi
GCCUAGCAAUAUUACGUUAC = med
CCCCAGCAAUAUUACGCCGG = lo
AAACAGCAAUAUUACGCGUU = lo
UACCAGCAAUAUUACGCGUG = hi
UCCCAGCAAUAUUACGGGCU = hi
CUAUAGCAAUAUUACGCUUU = lo
UCCAAGCAAUAUUACGGACA = med
GUUCAGCAAUAUUACGGGAU = med
AUUAAGCAAUAUUACGUUCA = hi
AGCGAGCAAUAUUACGUAGG = lo
UAAGAGCAAUAUUACGCGUG = med
CUUAAGCAAUAUUACGGAAU = lo
CCAGAGCAAUAUUACGUCGC = lo
AAGUAGCAAUAUUACGACGU = hi
UCAGAGCAAUAUUACGGGUC = lo
UCAGAGCAAUAUUACGUCCU = lo
CGACAGCAAUAUUACGGGUG = hi
UAUCAGCAAUAUUACGACCG = hi
CCCUAGCAAUAUUACGCUAA = lo
GCGUAGCAAUAUUACGAUGC = lo

----------
assay: self-splicing fitness, log relative to wild type (ln ratio); higher = more splicing; Tetrahymena group I intron in knt gene, E. coli kanamycin selection, DiMSum; sequences stand for … in CUCUCU…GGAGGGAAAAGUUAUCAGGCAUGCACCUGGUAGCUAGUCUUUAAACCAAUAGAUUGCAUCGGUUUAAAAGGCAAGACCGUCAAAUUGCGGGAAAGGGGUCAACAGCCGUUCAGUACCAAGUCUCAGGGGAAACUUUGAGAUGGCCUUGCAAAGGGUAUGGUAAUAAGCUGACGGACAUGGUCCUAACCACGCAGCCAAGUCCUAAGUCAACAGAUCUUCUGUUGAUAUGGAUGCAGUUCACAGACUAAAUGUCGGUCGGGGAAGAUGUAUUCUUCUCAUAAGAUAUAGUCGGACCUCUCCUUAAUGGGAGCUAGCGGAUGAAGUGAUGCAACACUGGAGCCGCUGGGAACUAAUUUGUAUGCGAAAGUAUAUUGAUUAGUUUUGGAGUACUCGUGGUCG; conditions: 37 °C
REPORTED_PROPERTY: self-splicing fitness (ln)

ACUUAGCAAUAUUACGUUCA = -0.694
GAAAAGCAAUAUUACGUACG = -0.9
UAAUAGCAAUAUUACGGCAU = -2.28
CAAUAGCAAUAUUACGUUUG = -1.52
UUACAGCAAUAUUACGUGUG = 0.0664
CGAUAGCAAUAUUACGCACG = -1.91
CCAUAGCAAUAUUACGAUUA = -2.54
GUCCAGCAAUAUUACGAGGC = -2.35
